Where these numbers come from: paper PMC11676667

Listed here: items and their measured concentration at 8 h.
protocol-description: Plasma pharmacokinetics after single oral dose of Δ8-THCV in MCT oil (LC-MS/MS, non-compartmental analysis)
Type: in vivo, human
condition-summary: human, plasma, oral, 200 mg, 8 h; 200 mg Δ8-THCV dose; Median (IQ Range)
Experimental: The study was a two-phase, dose-ranging, placebo-controlled trial in 21 healthy participants to assess the safety, tolerability, PK, and PD of an oral formulation of Δ8-THCV. A detailed description of the study was published elsewhere. […] Plasma samples were analyzed using a validated high-performance liquid chromatography–tandem mass spectrometry (LC-MS/MS) assay. […] For the PK analysis, concentrations below the lower limit of quantification were set to 0 ng/mL. […]
The response must be a number in ng/mL with no trailing unit.

Example entries and their recorded answers appear below.
[
  {
    "compound": "CCCc1cc(O)c2c(c1)OC(C)(C)[C@@H]1CCC(C(=O)O)=C[C@@H]21 [Δ9-THCV-COOH, 11-nor-9-carboxy-Δ9-THCV]",
    "unit-abbrev": "ng/mL",
    "observed-value": 26.3
  },
  {
    "compound": "CCCCCc1cc(O)c2c(c1)OC(C)(C)[C@@H]1CC=C(C(=O)O)CC21 (single isomer, unassigned; (+)) [Δ8-THC-COOH, (+)-11-nor-Δ8-THC-9-carboxylic acid]",
    "unit-abbrev": "ng/mL",
    "observed-value": 1.6
  },
  {
    "compound": "CCCc1cc(O)c2c(c1)OC(C)(C)[C@@H]1CC=C(C(=O)O)C[C@@H]21 [Δ8-THCV-COOH, 11-nor-9-carboxy-Δ8-THCV]",
    "unit-abbrev": "ng/mL",
    "observed-value": 855
  },
  {
    "compound": "CCCc1cc(O)c2c(c1)OC(C)(C)[C@@H]1CC=C(C)C[C@@H]21 [Δ8-THCV, Δ8-tetrahydrocannabivarin]",
    "unit-abbrev": "ng/mL",
    "observed-value": 13.4
  },
  {
    "compound": "CCCc1cc(O)c2c(c1)OC(C)(C)[C@@H]1CC=C(CO)C[C@@H]21 (racemic) [11-OH-Δ8-THCV, (±)-11-hydroxy-Δ8-THCV]",
    "unit-abbrev": "ng/mL",
    "observed-value": 3.1
  }
]

Read the next record carefully.
Task: Query: concentration at 8 h; subject: CCCc1cc(O)c2c(c1)OC(C)(C)[C@@H]1CCC(C)=C[C@@H]21 [Δ9-THCV, Δ9-tetrahydrocannabivarin]
Output: 0

====

protocol-description: Plasma pharmacokinetics after single oral dose of Δ8-THCV in MCT oil (LC-MS/MS, non-compartmental analysis)
Type: in vivo, human
condition-summary: human, plasma, po, 100 mg, 100 mg single oral Δ8-THCV in MCT oil; Mean (±SD)
Description: The study was a two-phase, dose-ranging, placebo-controlled trial in 21 healthy participants to assess the safety, tolerability, PK, and PD of an oral formulation of Δ8-THCV. A detailed description of the study was published elsewhere. […] Plasma samples were analyzed using a validated high-performance liquid chromatography–tandem mass spectrometry (LC-MS/MS) assay. […] For the PK analysis, concentrations below the lower limit of quantification were set to 0 ng/mL. […]
readout-kind: log10 of AUC(0-t) (log10 of the value in ng·h/mL)
Heads up, the numbers here are log10 of AUC(0-t) in ng·h/mL units.

Example entries and their recorded answers appear below.
[
  {
    "compound": "CCCc1cc(O)c2c(c1)OC(C)(C)[C@@H]1CC=C(CO)C[C@@H]21 (racemic) [11-OH-Δ8-THCV, (±)-11-hydroxy-Δ8-THCV]",
    "log10 of AUC(0-t)": 1.14
  },
  {
    "compound": "CCCCCc1cc(O)c2c(c1)OC(C)(C)[C@@H]1CC=C(C(=O)O)CC21 (single isomer, unassigned; (+)) [Δ8-THC-COOH, (+)-11-nor-Δ8-THC-9-carboxylic acid]",
    "log10 of AUC(0-t)": 0.38
  },
  {
    "compound": "CCCc1cc(O)c2c(c1)OC(C)(C)[C@@H]1CCC(C(=O)O)=C[C@@H]21",
    "log10 of AUC(0-t)": 1.97
  },
  {
    "compound": "CCCc1cc(O)c2c(c1)OC(C)(C)[C@@H]1CCC(C)=C[C@@H]21 [Δ9-THCV, Δ9-tetrahydrocannabivarin]",
    "log10 of AUC(0-t)": 0.15
  }
]

Task: Query: log10 of AUC(0-t); subject: CCCc1cc(O)c2c(c1)OC(C)(C)[C@@H]1CC=C(C(=O)O)C[C@@H]21
Output: 3.49

Task: Also check CCCc1cc(O)c2c(c1)OC(C)(C)[C@@H]1CC=C(C)C[C@@H]21 [Δ8-THCV, Δ8-tetrahydrocannabivarin]
Output: 1.82

====

protocol-description: Plasma pharmacokinetics after single oral dose of Δ8-THCV in MCT oil (LC-MS/MS, non-compartmental analysis)
Type: in vivo, human
condition-summary: human, plasma, oral, 100 mg, 4 h; 100 mg Δ8-THCV dose; Mean (SD, %CV)
Method: The study was a two-phase, dose-ranging, placebo-controlled trial in 21 healthy participants to assess the safety, tolerability, PK, and PD of an oral formulation of Δ8-THCV. A detailed description of the study was published elsewhere. […] Plasma samples were analyzed using a validated high-performance liquid chromatography–tandem mass spectrometry (LC-MS/MS) assay. […] For the PK analysis, concentrations below the lower limit of quantification were set to 0 ng/mL. […]
Listed here: items and their measured log10(concentration at 4 h).
Heads up, the numbers here are log10 of concentration at 4 h in ng/mL units.

Task: Query: log10(concentration at 4 h); subject: CCCc1cc(O)c2c(c1)OC(C)(C)[C@@H]1CC=C(C)C[C@@H]21 [Δ8-THCV, Δ8-tetrahydrocannabivarin]
Output: 1.06

Task: Also check CCCc1cc(O)c2c(c1)OC(C)(C)[C@@H]1CCC(C(=O)O)=C[C@@H]21 [Δ9-THCV-COOH, 11-nor-9-carboxy-Δ9-THCV]
Output: 1.21

Task: Also check CCCCCc1cc(O)c2c(c1)OC(C)(C)[C@@H]1CC=C(C(=O)O)CC21 (single isomer, unassigned; (+)) [Δ8-THC-COOH, (+)-11-nor-Δ8-THC-9-carboxylic acid]
Output: -0.40

Task: Also check CCCc1cc(O)c2c(c1)OC(C)(C)[C@@H]1CC=C(CO)C[C@@H]21 (racemic) [11-OH-Δ8-THCV, (±)-11-hydroxy-Δ8-THCV]
Output: 0.32

Task: Also check CCCc1cc(O)c2c(c1)OC(C)(C)[C@@H]1CC=C(C(=O)O)C[C@@H]21 [Δ8-THCV-COOH, 11-nor-9-carboxy-Δ8-THCV]
Output: 2.75

Task: Also check CCCc1cc(O)c2c(c1)OC(C)(C)[C@@H]1CCC(C)=C[C@@H]21 [Δ9-THCV, Δ9-tetrahydrocannabivarin]
Output: -0.52

====

protocol-description: Plasma pharmacokinetics after single oral dose of Δ8-THCV in MCT oil (LC-MS/MS, non-compartmental analysis)
Format: in vivo, human
condition-summary: human, plasma, po, 12.5 mg, 12.5 mg single oral Δ8-THCV in MCT oil; Mean (±SD)
Listed here: items and their measured AUC(0-t).
Please format your answer as a value with the unit trailing.

Example entries and their recorded answers appear below.
[
  {
    "compound": "CCCc1cc(O)c2c(c1)OC(C)(C)[C@@H]1CC=C(C(=O)O)C[C@@H]21",
    "AUC(0-t)": "398 ng·h/mL"
  },
  {
    "compound": "CCCc1cc(O)c2c(c1)OC(C)(C)[C@@H]1CC=C(C)C[C@@H]21 [Δ8-THCV, Δ8-tetrahydrocannabivarin]",
    "AUC(0-t)": "3.5 ng·h/mL"
  }
]

Task: Query: AUC(0-t); subject: CCCc1cc(O)c2c(c1)OC(C)(C)[C@@H]1CCC(C(=O)O)=C[C@@H]21
Output: 7.9 ng·h/mL

Task: Also check CCCc1cc(O)c2c(c1)OC(C)(C)[C@@H]1CC=C(CO)C[C@@H]21 (racemic) [11-OH-Δ8-THCV, (±)-11-hydroxy-Δ8-THCV]
Output: 0.7 ng·h/mL

====

protocol-description: Plasma pharmacokinetics after single oral dose of Δ8-THCV in MCT oil (LC-MS/MS, non-compartmental analysis)
Format: in vivo, human
condition-summary: human, plasma, oral, 200 mg, 1 h; 200 mg Δ8-THCV dose; Mean (SD, %CV)
Listed here: items and their measured concentration at 1 h.
Please format your answer as a value with the unit trailing.

[
  {
    "molecule": "CCCCCc1cc(O)c2c(c1)OC(C)(C)[C@@H]1CC=C(C(=O)O)CC21 (single isomer, unassigned; (+)) [Δ8-THC-COOH, (+)-11-nor-Δ8-THC-9-carboxylic acid]",
    "concentration at 1 h": "0 ng/mL"
  }
]

Task: Query: concentration at 1 h; subject: CCCc1cc(O)c2c(c1)OC(C)(C)[C@@H]1CC=C(CO)C[C@@H]21 (racemic) [11-OH-Δ8-THCV, (±)-11-hydroxy-Δ8-THCV]
Output: 1.2 ng/mL

Task: Also check CCCc1cc(O)c2c(c1)OC(C)(C)[C@@H]1CC=C(C)C[C@@H]21 [Δ8-THCV, Δ8-tetrahydrocannabivarin]
Output: 3.6 ng/mL

Task: Also check CCCc1cc(O)c2c(c1)OC(C)(C)[C@@H]1CCC(C(=O)O)=C[C@@H]21
Output: 4.9 ng/mL

Task: Also check CCCc1cc(O)c2c(c1)OC(C)(C)[C@@H]1CC=C(C(=O)O)C[C@@H]21
Output: 158 ng/mL

Task: Also check CCCc1cc(O)c2c(c1)OC(C)(C)[C@@H]1CCC(C)=C[C@@H]21 [Δ9-THCV, Δ9-tetrahydrocannabivarin]
Output: 0 ng/mL
